This listing pairs binders with measured hAMY3R EC50 (cAMP).
- Experimental Target: T1, hAMY3R (human, UniProt P30988)
- T1 sequence 1: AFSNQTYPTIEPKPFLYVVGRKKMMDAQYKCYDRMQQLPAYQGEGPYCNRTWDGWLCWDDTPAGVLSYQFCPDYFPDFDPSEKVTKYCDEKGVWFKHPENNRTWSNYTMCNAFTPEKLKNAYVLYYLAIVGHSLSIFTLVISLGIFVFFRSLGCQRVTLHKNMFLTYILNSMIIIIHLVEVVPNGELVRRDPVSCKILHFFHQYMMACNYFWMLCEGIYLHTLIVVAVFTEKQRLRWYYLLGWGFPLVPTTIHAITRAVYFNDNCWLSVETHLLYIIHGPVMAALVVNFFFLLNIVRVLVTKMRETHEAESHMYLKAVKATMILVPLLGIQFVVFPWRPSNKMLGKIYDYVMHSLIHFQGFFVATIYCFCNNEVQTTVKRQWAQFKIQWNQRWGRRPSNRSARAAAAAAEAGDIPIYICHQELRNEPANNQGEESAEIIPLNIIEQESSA
- T1 sequence 2: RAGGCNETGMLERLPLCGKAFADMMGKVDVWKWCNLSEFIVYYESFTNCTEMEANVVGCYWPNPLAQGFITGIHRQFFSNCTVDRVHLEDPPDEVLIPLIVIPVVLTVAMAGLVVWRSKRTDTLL
- Assay Overview: cell-based or functional assay
Numbered stars: 1 amine (or outer) side, 2 acyl side, 3 side chain; on linkers, the order of the positions; unused ones are H or OH. Bridge positions count the residues as written; N and C are the ends. Square brackets hold non-standard residues; d marks the D form. Side chains are listed from the residue outwards. Ends that are not written are not given here. * marks the point of attachment. C20 diacid = O=C(O)CCCCCCCCCCCCCCCCCCC(=O)*; γGlu = O=C(O)[C@H](CCC(=O)[*:2])N[*:1]; Hyp = O=C(O)[C@@H]1C[C@@H](O)CN1; Cit = NC(=O)NCCC[C@H](N)C(=O)O; AEEA = NCCOCCOCC(=O)O
Outcome Measure: hAMY3R EC50 (cAMP) (nM)

binder="GCRFGTCTVQRLAHQIYQFTDKDKDNVAPRTKISPNGY [SEQ ID NO: 371]" outcome_measure="hAMY3R EC50 (cAMP)" readout_number=0.019
binder="{C20 diacid-γGlu}-KCNTATCTVQRLAHQIYQFYDKDKDNVAPPTNVGSNG[Hyp]-NH2 (disulfide 2-7 (inferred); ends not checked) [SEQ ID NO: 104]" outcome_measure="hAMY3R EC50 (cAMP)" readout_number=0.018
binder="GCRTGTCTVQRLAHQIYQFTDKDKDNVAPRSNIGPNG[Hyp]-NH2 (disulfide 2-7 (inferred); ends not checked) [SEQ ID NO: 151]" outcome_measure="hAMY3R EC50 (cAMP)" readout_number=0.041
binder="GCRTGTCTVQWLAHQIYQFTDKDKDNVAPRTKIGPNG[Hyp]-NH2 (disulfide 2-7 (inferred); ends not checked) [SEQ ID NO: 339]" outcome_measure="hAMY3R EC50 (cAMP)" readout_number=0.047
binder="GCRTGTCTVQWLAHQIYQFTDKDKDNVAPRTNVSPNG[Hyp]-NH2 (disulfide 2-7 (inferred); ends not checked) [SEQ ID NO: 358]" outcome_measure="hAMY3R EC50 (cAMP)" readout_number=0.071
binder="GCRFGTCTVQRLAHQIYQFTDKDKDNVAPRSNIGPQG[Hyp]-NH2 (disulfide 2-7 (inferred); ends not checked) [SEQ ID NO: 229]" outcome_measure="hAMY3R EC50 (cAMP)" readout_number=0.207
binder="RCQASTCTVA[Cit]LAEQIAQYTDKDKDQVAPPTEVGPNS[Hyp]-NH2 (disulfide 2-7 (inferred); ends not checked) [SEQ ID NO: 33]" outcome_measure="hAMY3R EC50 (cAMP)" readout_number=0.008
binder="GCRTGTCTVQRLAHQIHQFTNKDKDNVAPRSKISPQT[Hyp]-NH2 (disulfide 2-7 (inferred); ends not checked) [SEQ ID NO: 227]" outcome_measure="hAMY3R EC50 (cAMP)" readout_number=0.187
binder="GCRFGTCTVQRLAHQIYQFTDKDKDNVAPRTNIGPNGY [SEQ ID NO: 381]" outcome_measure="hAMY3R EC50 (cAMP)" readout_number=0.032
binder="GCRFGTCTVQWLAHQIYQFTDKDKDNVAPRSKVGPQG[Hyp]-NH2 (disulfide 2-7 (inferred); ends not checked) [SEQ ID NO: 353]" outcome_measure="hAMY3R EC50 (cAMP)" readout_number=0.027
binder="KCNTATCTVQ[Cit]LAHQIYQATDKDKDNVAPPTNVGSNG[Hyp]-NH2 (disulfide 2-7 (inferred); ends not checked) [SEQ ID NO: 276]" outcome_measure="hAMY3R EC50 (cAMP)" readout_number=0.056
binder="KCNTATCTVQRLAK([AEEA-AEEA-γGlu-C20 diacid])QIYQFTDKDKDNVAPPTNVGSNG[Hyp]-NH2 (disulfide 2-7 (inferred); not fully specified; ends not checked) [SEQ ID NO: 74]" outcome_measure="hAMY3R EC50 (cAMP)" readout_number=0.013
binder="GCRTGTCTVQRLAHQIYQFTDKDKDNVAPRSNVGPQG[Hyp]-NH2 (disulfide 2-7 (inferred); ends not checked) [SEQ ID NO: 121]" outcome_measure="hAMY3R EC50 (cAMP)" readout_number=0.026
binder="KCNTATCTVQ[Cit]LAHQIYQFTDKDKDNVAPRTKVGSNGY-NH2 (disulfide 2-7 (inferred); ends not checked) [SEQ ID NO: 257]" outcome_measure="hAMY3R EC50 (cAMP)" readout_number=0.016
binder="GCRTGTCTVQ[Cit]LAHQIYQFTDKDKDNVAPRTNVGPQG[Hyp]-NH2 (disulfide 2-7 (inferred); ends not checked) [SEQ ID NO: 261]" outcome_measure="hAMY3R EC50 (cAMP)" readout_number=0.018
binder="GCRFGTCTVQRLAHQIYQFTDKDKDNVAPRSKVSPNGY [SEQ ID NO: 384]" outcome_measure="hAMY3R EC50 (cAMP)" readout_number=0.036
binder="GCRFGTCTVQWLAHQIYQFTDKDKDNVAPRTKVGPQG[Hyp]-NH2 (disulfide 2-7 (inferred); ends not checked) [SEQ ID NO: 322]" outcome_measure="hAMY3R EC50 (cAMP)" readout_number=0.014
binder="{C20 diacid-γGlu}-KCNTATCTVQ[Cit]LAEQIAQFTDKDKDNVAPPTNVGSNG[Hyp]-NH2 (disulfide 2-7 (inferred); ends not checked) [SEQ ID NO: 153]" outcome_measure="hAMY3R EC50 (cAMP)" readout_number=0.041
